Please provide measured Ki for the entries that follow.
Target: 5-hydroxytryptamine receptor 1A (Rattus norvegicus, UniProt P19327)
Sequence (P19327 whole entry): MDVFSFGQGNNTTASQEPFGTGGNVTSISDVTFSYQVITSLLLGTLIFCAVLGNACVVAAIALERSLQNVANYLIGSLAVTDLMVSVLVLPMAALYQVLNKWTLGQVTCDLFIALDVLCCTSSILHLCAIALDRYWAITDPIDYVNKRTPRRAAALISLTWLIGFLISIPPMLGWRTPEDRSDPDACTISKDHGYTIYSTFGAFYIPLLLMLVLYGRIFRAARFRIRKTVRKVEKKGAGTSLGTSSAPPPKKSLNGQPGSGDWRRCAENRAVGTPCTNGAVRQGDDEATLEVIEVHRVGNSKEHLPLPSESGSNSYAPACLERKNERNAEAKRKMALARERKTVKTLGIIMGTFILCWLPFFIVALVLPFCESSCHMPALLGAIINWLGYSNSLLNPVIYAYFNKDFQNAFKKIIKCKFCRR
One number for each entry, in nM.

Known results for compounds:
| compoundStructureString | systemTested | Ki [nM] |
| --- | --- | --- |
| CN1CC=C(c2c[nH]c3ccc(-c4ccncc4)cc23)CC1 | 5-hydroxytryptamine receptor 1A (Rattus norvegicus, UniProt P19327) | 74.1 |
| CCCN1CC=C(c2c[nH]c3ccccc23)CC1 | 5-hydroxytryptamine receptor 1A (Rattus norvegicus, UniProt P19327) | 556 |
| CN1CC=C(c2c[nH]c3ccc([Si](C)(C)C)cc23)CC1 | 5-hydroxytryptamine receptor 1A (Rattus norvegicus, UniProt P19327) | 165 |
| CN1CC=C(c2c[nH]c3ccc(C4OCCO4)cc23)CC1 | 5-hydroxytryptamine receptor 1A (Rattus norvegicus, UniProt P19327) | 87.9 |
| CC(=O)Oc1ccc2[nH]cc(C3=CCN(C)CC3)c2c1 | 5-hydroxytryptamine receptor 1A (Rattus norvegicus, UniProt P19327) | 81.3 |
| CN1CCC(c2c[nH]c3ccccc23)CC1 | 5-hydroxytryptamine receptor 1A (Rattus norvegicus, UniProt P19327) | 513 |

// for each compound in input: emit Ki
1. COc1ccc2[nH]cc(C3CCN(C)CC3)c2c1
2. CN1CC=C(c2c[nH]c3ccc(NS(C)(=O)=O)cc23)CC1
3. CN1CC=C(c2c[nH]c3ccc(C#N)cc23)CC1
4. Cc1ccc2[nH]cc(C3=CCN(C)CC3)c2c1
5. CN1CC=C(c2c[nH]c3ccc(S(C)(=O)=O)cc23)CC1

**A:**
[138, 692, 55, 146, 188]

// for each compound in input: emit Ki
1. CN1CC=C(c2c[nH]c3ccc(-c4ccccn4)cc23)CC1
2. CN1CC=C(c2c[nH]c3ccc([N+](=O)[O-])cc23)CC1

**A:**
25.1
21.1

---

Molecular target: 5-hydroxytryptamine receptor 1A (Rattus norvegicus)
Sequence (P19327 whole entry): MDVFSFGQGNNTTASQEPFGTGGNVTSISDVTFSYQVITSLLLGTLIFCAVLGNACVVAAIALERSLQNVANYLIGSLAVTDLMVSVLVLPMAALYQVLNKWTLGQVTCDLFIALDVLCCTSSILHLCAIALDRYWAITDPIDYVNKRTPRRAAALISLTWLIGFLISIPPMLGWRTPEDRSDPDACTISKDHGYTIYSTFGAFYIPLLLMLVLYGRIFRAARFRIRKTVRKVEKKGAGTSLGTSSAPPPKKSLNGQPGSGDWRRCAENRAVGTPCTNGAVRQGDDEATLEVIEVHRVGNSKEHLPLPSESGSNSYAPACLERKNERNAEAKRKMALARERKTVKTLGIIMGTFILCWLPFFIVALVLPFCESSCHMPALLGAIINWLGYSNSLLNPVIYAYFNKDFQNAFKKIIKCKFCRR
measure: pKi
One number for each entry, as −log10 of the molar value.

| compound | systemTested | pKi |
| --- | --- | --- |
| CN1CC=C(c2c[nH]c3ccc([S+](C)[O-])cc23)CC1 (centres undefined) | 5-hydroxytryptamine receptor 1A (Rattus norvegicus) | 6.98 |

// for each compound in input: emit pKi
1. CN1CC=C(c2c[nH]c3ccc(Br)cc23)CC1
2. CCOC(=O)c1ccc2[nH]cc(C3=CCN(C)CC3)c2c1
3. CN1CC=C(c2c[nH]c3ccc(OCc4ccccc4)cc23)CC1
4. CN1CC=C(c2c[nH]c3ccc(N4C(=O)c5ccccc5C4=O)cc23)CC1
5. C1=C(c2c[nH]c3ccccc23)CCNC1

**A:**
[7.96, 7.44, 6.96, 6.42, 6.72]

---

Target: 5-hydroxytryptamine receptor 1A (Rattus norvegicus, UniProt P19327)
Sequence (P19327 whole entry): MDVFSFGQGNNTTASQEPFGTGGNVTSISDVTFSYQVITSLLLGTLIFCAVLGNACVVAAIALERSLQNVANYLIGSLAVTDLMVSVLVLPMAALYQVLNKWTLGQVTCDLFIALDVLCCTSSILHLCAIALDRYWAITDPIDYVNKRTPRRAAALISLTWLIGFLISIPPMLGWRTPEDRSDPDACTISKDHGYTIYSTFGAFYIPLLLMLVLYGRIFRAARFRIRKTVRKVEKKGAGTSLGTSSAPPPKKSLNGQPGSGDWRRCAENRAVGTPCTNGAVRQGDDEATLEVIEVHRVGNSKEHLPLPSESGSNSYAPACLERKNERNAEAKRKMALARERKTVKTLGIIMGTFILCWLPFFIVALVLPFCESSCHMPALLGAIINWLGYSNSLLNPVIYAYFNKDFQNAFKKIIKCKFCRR
Please provide measured Ki for the entries that follow.
Note: a bare number is incomplete; add the unit.

| molecule | Ki |
| --- | --- |
| CN1CC=C(c2c[nH]c3ccc(C(N)=O)cc23)CC1 | 5.3 nM |
| CCCN1CC=C(c2c[nH]c3ccc(NC(C)=O)cc23)CC1 | 37 nM |
| CCCN1CC=C(c2c[nH]c3ccc(OC)cc23)CC1 | 363 nM |
| CN1CC=C(c2c[nH]c3ccc(-c4ccsc4)cc23)CC1 | 25.1 nM |
| CSc1ccc2[nH]cc(C3=CCN(C)CC3)c2c1 | 23 nM |

// for each molecule in input: emit Ki
1. CN1CC=C(c2c[nH]c3ccc(-c4ccccc4)cc23)CC1
2. COc1ccc2[nH]c(C)c(C3=CCN(C)CC3)c2c1
3. CN1CC=C(c2c[nH]c3ccc(CO)cc23)CC1
4. CN1CCC(c2c[nH]c3ccccc23)(c2c[nH]c3ccccc23)CC1
5. CC(O)c1ccc2[nH]cc(C3=CCN(C)CC3)c2c1 (configuration not stated)
6. COC(=O)c1ccc2[nH]cc(C3=CCN(C)CC3)c2c1
7. CN1CC=C(c2c[nH]c3ccccc23)CC1

**A:**
55 nM
345 nM
126 nM
550 nM
221 nM
19.4 nM
146 nM

---

These compounds were tested on 5-hydroxytryptamine receptor 1A (Rattus norvegicus); pKi is the recorded read-out.
Numbers only, as −log10 of the molar value.

Known results for compounds:
| compoundStructureString | systemTested | pKi |
| --- | --- | --- |
| CN1CC=C(c2c[nH]c3ccc(-c4ccc(F)cc4)cc23)CC1 | 5-hydroxytryptamine receptor 1A (Rattus norvegicus) | 7.16 |
| COc1ccc2[nH]cc(C3=CCN(C)CC3)c2c1 | 5-hydroxytryptamine receptor 1A (Rattus norvegicus) | 7.68 |
| CN1CC=C(c2c[nH]c3ccc(O)cc23)CC1 | 5-hydroxytryptamine receptor 1A (Rattus norvegicus) | 7.21 |
| CCCN1CC=C(c2c[nH]c3ccc(C#N)cc23)CC1 | 5-hydroxytryptamine receptor 1A (Rattus norvegicus) | 6.52 |
| CN1CC=C(c2c[nH]c3ccc(Cl)cc23)CC1 | 5-hydroxytryptamine receptor 1A (Rattus norvegicus) | 6.72 |

// for each compound in input: emit pKi
1. CN1CC=C(c2c[nH]c3ccc(-c4cccs4)cc23)CC1
2. CCN1CC=C(c2c[nH]c3ccc(C(=O)OC)cc23)CC1
3. CN1CC=C(c2cn(Cc3ccccc3)c3ccccc23)CC1

**A:**
1: 7.72; 2: 6.42; 3: 5.00

// for each compound in input: emit pKi
1. C1=C(c2c[nH]c3ccccc23)CCN(Cc2ccccc2)C1
2. CC(=O)c1ccc2[nH]cc(C3=CCN(C)CC3)c2c1
3. CC(=O)Nc1ccc2[nH]cc(C3=CCN(C)CC3)c2c1
4. CN1CC=C(c2c[nH]c3ccc(-c4cccnc4)cc23)CC1

**A:**
6.04
7.64
7.11
6.70

---

Target: 5-hydroxytryptamine receptor 1A (Rattus norvegicus)
Sequence (P19327 whole entry): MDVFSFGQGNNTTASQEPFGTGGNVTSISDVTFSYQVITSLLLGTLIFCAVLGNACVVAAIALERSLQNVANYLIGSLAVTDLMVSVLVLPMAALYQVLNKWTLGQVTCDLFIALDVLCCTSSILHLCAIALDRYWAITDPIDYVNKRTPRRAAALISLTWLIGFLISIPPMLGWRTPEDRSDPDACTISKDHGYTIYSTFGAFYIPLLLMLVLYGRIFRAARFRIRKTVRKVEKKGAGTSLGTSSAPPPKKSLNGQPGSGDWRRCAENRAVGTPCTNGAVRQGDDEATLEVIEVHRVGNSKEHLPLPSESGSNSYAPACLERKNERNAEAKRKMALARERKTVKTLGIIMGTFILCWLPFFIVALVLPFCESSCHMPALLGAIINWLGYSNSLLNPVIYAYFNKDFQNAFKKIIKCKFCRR
measure: Ki (nM)
Answers are plain numbers, in nM.

| compoundStructureString | Ki [nM] |
| --- | --- |
| CN1CC=C(c2c[nH]c3ccc(C(C)(C)O)cc23)CC1 | 187 |
| O=[N+]([O-])c1ccc2[nH]cc(C3=CCNCC3)c2c1 | 64.6 |

API: the following record is the query input.
**Q:** Report Ki from 5-hydroxytryptamine receptor 1A (Rattus norvegicus) testing of CCCN1CC=C(c2c[nH]c3ccc(C(N)=O)cc23)CC1
**A:** 17
